The reported numbers originate from PubChem BioAssay.

assay text: PSAC antagonists in infected red cells, primary screen, cell-based, P. falciparum Indochina, OD700, 2 h (AID 1155);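 note: lysis reports solute entry through the parasite surface anion channel PSAC; channel blockers reduce lysis of infected cells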
condition label: P. falciparum Indochina infected erythrocytes, osmotic lysis OD700, called active from +8 up or from −8 down
Active and inactive are the calls of the source.
Labels: active, inactive

| compound | label class |
| --- | --- |
| COc1ccc([Si](C)(C)[C@@H]2[C@@H](CC(=O)N(CCO)Cc3ccccc3)O[C@]3(C(=O)N(Cc4cccc(N5CCOC5=O)c4)c4ccccc43)[C@H]2C)cc1 | inactive |
| CCCC[C@@H]1C[C@H]1[C@@H](NC(=O)c1ccccc1)c1ccc(C(F)(F)F)cc1 | inactive |
| O=C1O[C@@H](c2ccccc2)[C@@H](c2ccccc2)N2[C@@H](c3ccc(OCCO)cc3)[C@]3(C(=O)Nc4ccccc43)[C@@H](C(=O)O)[C@H]12 | inactive |
| C=C[C@@H](COC(C)=O)N(C(=O)OC(C)(C)C)S(=O)(=O)c1ccc(Br)cc1 | inactive |
| N#Cc1ccc(NN2C(C(O)c3ccc(F)cc3)C=CC3C(=O)N(c4ccccc4)C(=O)C32)cc1 (stereo not given) | inactive |
| [N-]=[N+]=NCc1ccccc1[C@H]1OC(c2ccc(OCCCO)cc2)=N[C@@]1(CCS(=O)(=O)c1ccccc1)C(=O)N1CCCCC1 | active |
| [N-]=[N+]=Nc1ccccc1[C@H]1OC(c2ccc(OCCCO)cc2)=N[C@@]1(Cc1ccccc1)C(=O)N1CCCCC1 | active |
| COC(=O)[C@H](Cc1ccccc1)N1CC(/C=C/C2CC2)=C[C@H]1[C@H](O)Cc1ccccc1 | inactive |
| NC(N)=NCCCn1cc(CNC(=O)[C@@H](N)Cc2ccccc2)nn1 | inactive |
| CC(=O)NCCCC[C@@H]1NC(=O)[C@@H]2C[C@H](C(=O)NCCCC[N+](C)(C)C)[C@H](c3ccc(O)cc3)N2C1=O | inactive |
| COCCCNC(=O)[C@]1(CCS(=O)(=O)c2ccccc2)N=C(c2ccc(OCCCO)cc2)O[C@@H]1c1ccccc1CN=[N+]=[N-] | active |
| COC(=O)[C@@]1(Cc2ccccc2N=[N+]=[N-])N=C(c2ccc(OCCCO)cc2)O[C@H]1c1ccccc1N=[N+]=[N-] | active |
| [N-]=[N+]=NCc1ccccc1[C@@H]1OC(c2ccc(OCCCO)cc2)=N[C@]1(CCS(=O)(=O)c1ccccc1)C(=O)NCC(O)CO (stereo not given in full) | active |
| O[C@@H](Cc1ccccc1)[C@@H](/C=C/C1CC1)N(CC#Cc1ccccc1)Cc1cccc(Cl)c1 | inactive |
| Cc1ccc(S[C@]2(C(=O)NCCCN(C)C)CC(=O)N(C3CCCCC3)[C@@H]2c2ccc(CO)cc2)cc1 | inactive |
| COc1cc(OC)c(C(O)C2C=CC3C(=O)N(C)C(=O)C3N2NC(=O)OC(C)(C)C)cc1Br (stereo not given) | inactive |
| [N-]=[N+]=Nc1ccccc1[C@H]1OC(c2ccc(OCCCO)cc2)=N[C@@]1(CCS(=O)(=O)c1ccccc1)C(=O)NCCN1CCOCC1 | active |
| COC(=O)c1ccc([C@H](NC(=O)c2ccco2)[C@]2(C)C[C@H]2C2CCCCC2)cc1 | inactive |
| CO[C@H]1O[C@H](CO)[C@@H](OC(=O)Nc2ccccc2-c2ccccc2)[C@H](OC(=O)Nc2ccc3c(c2)OCO3)[C@H]1OC(=O)Nc1ccc2c(c1)OCO2 | inactive |
| CN(C)c1ccc(C(O)C2C=CC3C(=O)N(c4ccccc4)C(=O)C3N2Nc2ccc([N+](=O)[O-])cc2)cc1 (stereo not given) | inactive |

###

assay text: small-molecule binders of probe aNOTCH3, primary screen, biochemical, small-molecule microarray, 635/667 nm fluorescence (AID 1120);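 note: probe is a biotin-tagged antibody raised against NOTCH3 rather than NOTCH3 protein; score merges spot fluorescence near 667 nm with spot signal to noise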
condition label: higher = more signal
# binarize composite z-score: threshold -0.09 inclusive, high side 1 (yes), low side 0 (no)

| compound | label class |
| --- | --- |
| CCOC(=O)C1=CC[C@@H](c2ccc(OCc3ccccc3)c(OC)c2)N(S(=O)(=O)c2ccc(C)cc2)[C@H]1c1ccc(SC)cc1 | 1 (yes) |
| COc1ccc(NC(=O)O[C@H]2[C@H](OC(=O)Nc3ccccc3)[C@@H](OC(=O)Nc3ccccc3)[C@@H](OC)O[C@@H]2CO)cc1 | 1 (yes) |
| CCCCN1CC=CC23O[C@@H]4/C=C\CCC(C)OC(=O)C4[C@H]2C(=O)N(C(CO)C(C)C)[C@@H]3C1=O (stereo partly specified) | 0 (no) |
| C=CCC(OC(C)=O)[C@@H]1[C@@H](N(Cc2cccc3ccccc23)C(=O)Cc2ccc(OC)cc2)c2cc(OCCCO)ccc2N1C(=O)c1ccc2ccccc2n1 (stereo partly specified) | 1 (yes) |
| COCCOC(=O)N1C(=O)[C@@]2(c3cc(C#CC4(O)CCCCCC4)ccc31)[C@H](c1ccc(O)cc1)N1[C@H](c3ccccc3)[C@H](c3ccccc3)OC(=O)[C@H]1[C@@H]2C(=O)NC[C@H](O)c1ccccc1 | 1 (yes) |
| O=C1OCC=C[C@H]2OC34C=CCN(Cn5nnc6ccccc65)C(=O)[C@H]3N(CCCO)C(=O)[C@@H]4[C@@H]12 (stereo partly specified) | 0 (no) |
| COC(=O)c1c(CC[C@@H](CO)NC(=O)N2CCC[C@H]2Cn2cc(Cc3ccccc3)nn2)oc(C(C)=O)c1C(=O)OC | 1 (yes) |
| C=CCOC(=O)[C@H]1[C@@H]2C(=O)O[C@@H](c3ccccc3)[C@@H](c3ccccc3)N2[C@@H](c2ccc(OCCOC(=O)[C@@H]3C[C@@H]4C(=O)N[C@@H](CCCCNC(C)=O)C(=O)N4[C@@H]3c3ccc(O)cc3)cc2)[C@]12C(=O)Nc1ccc(I)cc12 | 1 (yes) |
| O=C1N(Cc2ccccc2)Cc2ccccc2[C@@H]2OC(c3ccc(OCCCO)cc3)=N[C@]12CCS(=O)(=O)c1ccccc1 | 1 (yes) |
| COc1ccc([Si](C)(C)[C@@H]2[C@@H](CCn3cc([C@H](O)c4ccccc4)nn3)O[C@]3(C(=O)N(Cc4ccc(N5CCC5=O)cc4)c4ccccc43)[C@H]2C)cc1 | 0 (no) |

###

assay text: HepG2 cell viability effects, profiling panel, calcein-AM fluorescence, 48 h, basal (AID 1164); note: test concentration not given here
condition label: higher = more signal

| compound | z-score |
| --- | --- |
| COc1cccc(/C=C/C=O)c1 | 0.844 |
| CN1C(=O)C2C=CC(C(O)c3cccc(O)c3)N(Nc3ccccc3)C2C1=O (stereo not given) | -0.333 |
| NCCCCCNC(=O)[C@@H]1C[C@@H]2C(=O)NCC(=O)N2[C@@H]1c1cccc(OCCO)c1 | -0.531 |
| CCCNC(=O)[C@@]1(c2ccc([N+](=O)[O-])cc2)CC(=O)N(C2CCCCC2)[C@@H]1c1ccc(CO)cc1 | 0.196 |
| O=C(NCC(F)(F)F)[C@@H]1c2ccccc2C(=O)N(Cc2cc(F)cc(C(F)(F)F)c2)[C@H]1c1ccc(CO)cc1 | -0.158 |

###

assay text: S. cerevisiae growth modulation with rapamycin, primary screen, strain BY4716, OD600, 96 h (AID 1091); note: test concentration not given here
condition label: higher = more signal, called active from +8 up or from −8 down
Here, each record is paired with measured z-score data.

| compound | z-score |
| --- | --- |
| CCCCN1CC=CC23O[C@@H]4/C=C\CCC(C)OC(=O)C4[C@H]2C(=O)N(C(CO)C(C)C)[C@@H]3C1=O (stereo partly specified) | -0.528 |
| C=CCC(OC(C)=O)[C@@H]1[C@@H](N(Cc2cc3ccccc3o2)C(=O)c2ccc(C)cc2)c2cc(OCCCO)ccc2N1C(=O)Cc1ccc(OC)cc1 (stereo partly specified) | -0.131 |
| C[C@@H]1ON(c2ccc(C(=O)OC(C)(C)C)cc2)[C@H](c2ccc(O)cc2)[C@H]1C(=O)N1C(=O)OC[C@H]1Cc1ccccc1 | 1.84 |
| O=C1O[C@H](c2ccccc2)[C@H](c2ccccc2)N2[C@H]1[C@@H](C(=O)Nc1nc3ccccc3s1)[C@]1(C(=O)Nc3ccc(C#CC4(O)CCCCCC4)cc31)[C@H]2c1ccccc1OCCO | 3.32 |
| CCOC(=O)C[C@H]1[C@H](OC(=O)Cc2ccc3c(c2)OCO3)[C@@H](NC(=O)Cc2ccc(OC)cc2)c2cc(OCCCO)ccc2N1C(=O)c1ccc2ccccc2n1 | 0.758 |
| CCCC[C@@H](O)C1=C(COc2ccccc2)C[C@H]2C(=O)N(C)C(=O)[C@H]2[C@H]1CO | -0.561 |

###

Below: a set of entries, each annotated with reported z-score.
assay text: S. cerevisiae RM11-1a growth modifiers, primary screen, strain RM11-1a, OD600, basal, 24 h (AID 1177);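 note: cultures grown under basal conditions with no added stressor; test concentration not given here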
condition label: OD600, 24 h, higher = more signal, called active from +8 up or from −8 down
The source made the active and inactive calls.

| compound | z-score |
| --- | --- |
| CCOC(=O)C1=CC[C@@H](c2cccc(Cl)c2)N(S(=O)(=O)c2ccc(C)cc2)C1 | -0.188 (inactive) |
| CN1C(=O)C2C=CC(C(O)c3ccc(F)cc3)N(Nc3ccccc3)C2C1=O (centres undefined) | 1.38 (inactive) |
| CC(C)[Si](C#CCCCC#N)(O[C@H](c1ccccc1)c1cn([C@H](CO)Cc2ccccc2)nn1)C(C)C | -1.8 (inactive) |
| CCC(CC)C(O)C1C=CC2C(=O)N(c3ccccc3)C(=O)C2N1Nc1ccc(C(C)C)cc1 (centres undefined) | 1.27 (inactive) |
| O=C(CS)NCCCCCNC(=O)[C@@H]1C[C@@H]2C(=O)N3CCC[C@H]3C(=O)N2[C@@H]1c1cccc(OCCO)c1 | 0.119 (inactive) |
| C=CCN1C(=O)[C@@]2(CCS(=O)(=O)c3ccccc3)N=C(c3ccc(OCCCO)cc3)O[C@H]2c2ccccc21 | 1.45 (inactive) |
| CCCCO[C@H]1C[C@H]2C(I)=C[C@@H]1C(=O)[C@]21CO1 | -1.31 (inactive) |
| O=C1O[C@H](c2ccccc2)[C@H](c2ccccc2)N2[C@H]1[C@@H](C(=O)Nc1nc3ccccc3s1)[C@]1(C(=O)Nc3ccc(C#CC4(O)CCCCCC4)cc31)[C@H]2c1ccccc1OCCO | 2.74 (inactive) |
| C=CCC(OC(C)=O)[C@@H]1[C@@H](N(Cc2cccc3ccccc23)C(=O)Cc2ccc(OC)cc2)c2cc(OCCCO)ccc2N1C(=O)c1ccc2ccccc2n1 (some centres undefined) | -0.212 (inactive) |
| CCOC(=O)C[C@H]1[C@H](OC(=O)c2ccc(C(=O)c3ccccc3)cc2)[C@@H](NC(=O)Cc2ccc(OC)cc2)c2cc(OCCCO)ccc2N1C(=O)c1ccccc1 | -0.193 (inactive) |
| CC1=C[C@@]2(CO)C(=O)[C@]3(CO3)[C@@H]1[C@H]1[C@]2(C)C=C(CO)C(=O)[C@]12CO2 | -0.813 (inactive) |
| COC(=O)[C@@]1(Cc2ccc(OC)cc2)[C@H]2c3cc(C(=O)N(C)C)n(CCO)c3C[C@H]2CN1C(=O)c1ccccc1 | -0.562 (inactive) |
| O=C1C=C(c2ccccc2)C(=O)c2ccc([C@H]3Oc4ccccc4S(=O)(=O)N4CCC[C@@H]34)cc21 | -0.801 (inactive) |
| CC(=O)NCCCC[C@@H]1NC(=O)[C@H]2C[C@@H](C(=O)NCCCC[N+](C)(C)C)[C@@H](c3cccc(OCCO)c3)N2C1=O | -0.724 (inactive) |
| N#Cc1ccc(C(O)C2C=CC3C(=O)N(c4ccccc4)C(=O)C3N2Nc2ccccc2)cc1 (centres undefined) | -0.433 (inactive) |
| COc1ccc(C(O)C2C=CC3C(=O)N(c4ccccc4)C(=O)C3N2Nc2ccc([N+](=O)[O-])cc2)cc1 (centres undefined) | 0.613 (inactive) |
| COc1ccc([Si](C)(C)[C@@H]2[C@@H](CC(=O)N(CCO)Cc3ccccc3)O[C@]3(C(=O)N(c4ccccc4)c4ccccc43)[C@H]2C)cc1 | 0.525 (inactive) |
| Cc1cc(C)cc(N2C(=O)CSC2c2cccc([N+](=O)[O-])c2)c1 (centres undefined) | 0.265 (inactive) |
| Cc1ccc(S[C@]2(C(=O)O)CC(=O)N(Cc3cc(C(F)(F)F)cc(C(F)(F)F)c3)[C@@H]2c2ccc(CO)cc2)cc1 | 0.988 (inactive) |
| C=C(/C(=C/C[C@H](OC(C)=O)c1cccc(OCCO)c1)c1cnc2ccccc2c1)C(C)C | 1.51 (inactive) |
| COc1ccc([Si](C)(C)[C@H]2[C@H](CCO)O[C@@]3(C(=O)N(Cc4cccc(N5C(=O)COc6ccccc65)c4)c4ccccc43)[C@@H]2C)cc1 | 4.14 (inactive) |
| OCC1CC(c2ccccc2)=NO1 (centres undefined) | 0.309 (inactive) |
| CCCCCCc1nc(C2CC2)cc2c1[Si](C(C)C)(C(C)C)OC2 | -0.431 (inactive) |
| C=C(C)c1cc2c(c(CCCCCC)n1)[Si](C(C)C)(C(C)C)OC2 | 1.06 (inactive) |
